Each record here notes measured sfGFP reporter fluorescence.
B1: library; numbered along this chain (parent)
chain: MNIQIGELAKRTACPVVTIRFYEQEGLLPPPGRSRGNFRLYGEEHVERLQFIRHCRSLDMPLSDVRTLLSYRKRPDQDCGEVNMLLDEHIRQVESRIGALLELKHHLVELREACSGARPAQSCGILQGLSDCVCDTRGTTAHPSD

Variants of: B1
Test: sfGFP reporter fluorescence (15 h) (µM FITC); higher = higher leak
Conditions: library round: Round 1; ligand: none
Give your answer as a number; write no unit.

These recorded examples may help you get a feel for the data.
   mutationkey  measuredvalue
0  G128I C134E         0.0745
1         R96Q         0.0632
2   N83T L110W         0.0601
3   N83T L107F          0.061
4   N83R L107H         0.0594

Which measured sfGFP reporter fluorescence value corresponds to E94Y P143C ? 0.0629
